Assay: self-splicing fitness, log relative to wild type (ln ratio); higher = more splicing; Tetrahymena group I intron in knt gene, E. coli kanamycin selection, DiMSum; sequences stand for … in CUCUCU…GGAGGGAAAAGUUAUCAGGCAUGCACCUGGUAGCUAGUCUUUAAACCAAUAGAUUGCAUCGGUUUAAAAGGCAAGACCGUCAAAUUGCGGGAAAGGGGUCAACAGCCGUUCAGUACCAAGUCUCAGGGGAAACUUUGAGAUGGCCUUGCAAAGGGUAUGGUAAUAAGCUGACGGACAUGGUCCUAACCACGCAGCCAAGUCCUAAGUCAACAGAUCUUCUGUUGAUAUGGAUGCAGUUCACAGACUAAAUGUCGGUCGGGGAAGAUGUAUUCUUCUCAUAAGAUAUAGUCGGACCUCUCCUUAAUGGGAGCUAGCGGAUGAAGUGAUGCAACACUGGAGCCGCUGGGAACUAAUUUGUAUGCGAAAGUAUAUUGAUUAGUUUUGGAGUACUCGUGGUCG;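 note: selection with 25 µg/mL kanamycin versus none on LB agar overnight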
Settings: 30 °C
Readout: self-splicing fitness (ln)
Would you mind answering with just the numeric figure?

# Primary Sequence, Test Value
measured = [
    ("ACGCAGCAAUAUUACGCUUC", -2.75),
]

Exercise: Given the sequence UCCUAGCAAUAUUACGGAUU , what is its reported self-splicing fitness (ln)?
Key: -4.22

Exercise: If you can, please state the reported self-splicing fitness (ln) value of ACGUAGCAAUAUUACGCAGU .
Key: -2.58

Exercise: Reported self-splicing fitness (ln) for CAGUAGCAAUAUUACGUGGG : what is it?
Key: -3.85

Exercise: Report self-splicing fitness (ln) for CUCUAGCAAUAUUACGGGGU please.
Key: -3.87

Exercise: // self-splicing fitness (ln) lookup, key: GUCGAGCAAUAUUACGAGUG
Key: -1.62

Exercise: What value of self-splicing fitness (ln) has been recorded for this entry: CCCAAGCAAUAUUACGAGGU
Key: -3.16

Exercise: Any idea what self-splicing fitness (ln) was measured for GUAAAGCAAUAUUACGAGCA ?
Key: 0.322

Exercise: # get_value(readout='self-splicing fitness (ln)', item= AACUAGCAAUAUUACGCUCA )
Key: -0.21

Exercise: // query self-splicing fitness (ln) value for entry GCACAGCAAUAUUACGCGAU
Key: -2.12

----------
Assay: self-splicing fitness, log relative to wild type (ln ratio); higher = more splicing; Tetrahymena group I intron in knt gene, E. coli kanamycin selection, DiMSum; sequences stand for … in CUCUCU…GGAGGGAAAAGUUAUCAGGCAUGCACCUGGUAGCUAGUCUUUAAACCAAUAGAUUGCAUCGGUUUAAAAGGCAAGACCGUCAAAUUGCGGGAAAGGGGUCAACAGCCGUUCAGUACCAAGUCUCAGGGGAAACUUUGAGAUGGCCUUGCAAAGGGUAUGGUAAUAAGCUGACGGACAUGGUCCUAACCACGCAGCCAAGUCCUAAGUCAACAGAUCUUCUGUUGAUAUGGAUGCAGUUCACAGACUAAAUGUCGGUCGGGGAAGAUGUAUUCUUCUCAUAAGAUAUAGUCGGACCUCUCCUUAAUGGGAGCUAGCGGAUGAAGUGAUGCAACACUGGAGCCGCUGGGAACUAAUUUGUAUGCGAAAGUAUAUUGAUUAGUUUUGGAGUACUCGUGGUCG
Details: 30 °C
Listing of recorded self-splicing fitness (ln) by entry.
Give only the figure.

# Primary Sequence, self-splicing fitness (ln)
measured = [
    ("UGGUAGCAAUAUUACGGCGG", -0.708),
    ("CGCUAGCAAUAUUACGUCCA", -1.49),
    ("UUAUAGCAAUAUUACGUCUU", -3.35),
    ("GGUGAGCAAUAUUACGGCUG", -1.06),
    ("UAGGAGCAAUAUUACGUAAU", -3.15),
    ("CUUUAGCAAUAUUACGGGCC", -3.32),
    ("AUAUAGCAAUAUUACGUACG", -2.49),
    ("CUUAAGCAAUAUUACGAUGC", -3.42),
    ("CAUCAGCAAUAUUACGAUUU", -0.551),
    ("GCUGAGCAAUAUUACGAGUA", -2.25),
]

Exercise: // returns reported self-splicing fitness (ln) for input GUAGAGCAAUAUUACGUUUA
Key: -2.09

Exercise: Give the measured self-splicing fitness (ln) of AUAGAGCAAUAUUACGGCAG .
Key: -2.15

Exercise: What measured self-splicing fitness (ln) goes with GCAGAGCAAUAUUACGUUUU ?
Key: -3.54

Exercise: Could you share which self-splicing fitness (ln) value was measured for GUUCAGCAAUAUUACGGCAA ?
Key: -0.436

Exercise: Item under review: AAUAAGCAAUAUUACGGCGC . Reported self-splicing fitness (ln)?
Key: 0.251

Exercise: Query: self-splicing fitness (ln); subject: GUCCAGCAAUAUUACGACCA
Key: -0.7

Exercise: Any idea what self-splicing fitness (ln) was measured for AAUUAGCAAUAUUACGCUGU ?
Key: -1.44

Exercise: Query: self-splicing fitness (ln); subject: AGUCAGCAAUAUUACGCUGA
Key: -2.55

Exercise: Param item = GUUAAGCAAUAUUACGGGUU ; retrieve measured self-splicing fitness (ln).
Key: -3.44

Exercise: Looking for the measured self-splicing fitness (ln) of CUUUAGCAAUAUUACGAGGC , can you help?
Key: -2.85

Exercise: Fill in: self-splicing fitness (ln) of AGGCAGCAAUAUUACGUCUG is ___
Key: -2.66

Exercise: Fill in: self-splicing fitness (ln) of AUUUAGCAAUAUUACGAUCU is ___
Key: 0.177

Exercise: self-splicing fitness (ln) for AUAAAGCAAUAUUACGUCCU ?
Key: 0.13

Exercise: Endpoint output: self-splicing fitness (ln) of UUGGAGCAAUAUUACGUUAA . Value?
Key: -2.09

Exercise: Reported self-splicing fitness (ln), sequence GGGUAGCAAUAUUACGAAAA : ____
Key: -0.788
